assay: Phase 1 dose-escalation (QD/BID) study in normal healthy volunteers; type: in vivo, human; conditions: human, plasma, po, 7 mg, Treatment A: 7 mg once, total 7 mg; oral; human plasma; mean; read-out: AM Cmax
Property Measured: Cmax (ng/mL)

[[record]]
chem_smiles = "Cc1cccc(/C=N/Nc2cc(N3CCOCC3)nc(OCCc3ccccn3)n2)c1"
measured = 10.8


The measured values listed here are drawn from patent US10350213B2.
